All figures here come from ChEMBL document CHEMBL1126030.

Biological target: Human immunodeficiency virus type 1 protease (Human immunodeficiency virus 1, UniProt Q72874)
Experiment: In vitro enzyme inhibitory activity against HIV-1 protease.
Type: functional
ASSAY_ENDPOINT: IC50 (nM)
// return numeric value only (unit: nM, not printed)

input: For `CC(C)(C)OC(=O)N[C@@H](Cc1ccccc1)[C@@H](O)C[C@@H](Cc1ccc(OCCN2CCOCC2)cc1)C(=O)N[C@H]1c2ccccc2C[C@H]1O` , write its IC50.
output: 0.45

* * *

# Lookup of reported I/C keyed by entry
Biological target: Human immunodeficiency virus type 1 protease (Human immunodeficiency virus 1)
Assay: Ratio of inhibitory activity on HIV-1 protease (IC50) to antiviral activity against HIV-1 in human H9 T-lymphoid cell-ELISA assay(CIC)
Type: functional, cell-based
Provide a numeric answer; units are not to be included.

Would you please look over these solved cases?
INSERT INTO results (molecule, assay_endpoint, recorded_measurement) VALUES
  ('CC(C)(C)OC(=O)N[C@@H](Cc1ccccc1)[C@@H](O)C[C@@H](Cc1ccc(O)cc1)C(=O)N[C@H]1c2ccccc2C[C@H]1O', 'I/C', 0.0032),
  ('CC(C)(C)OC(=O)N[C@@H](Cc1ccc(OCCN2CCOCC2)cc1)[C@@H](O)C[C@@H](Cc1ccc(OCCN2CCOCC2)cc1)C(=O)NC1c2ccccc2C[C@H]1O (some centres undefined)', 'I/C', 0.019),
  ('CN1CCN(CCOc2ccc(C[C@H](C[C@H](O)[C@H](Cc3ccccc3)NC(=O)OC(C)(C)C)C(=O)NC3c4ccccc4C[C@H]3O)cc2)CC1 (some centres undefined)', 'I/C', 0.002);

input: Supply I/C value. Item: COCCN(CCOC)CCOc1ccc(C[C@H](C[C@H](O)[C@H](Cc2ccccc2)NC(=O)OC(C)(C)C)C(=O)NC2c3ccccc3C[C@H]2O)cc1 (some centres undefined)
output: 0.018

* * *

Target: Human immunodeficiency virus type 1 protease (Human immunodeficiency virus 1, UniProt Q72874)
Experiment: In vitro enzyme inhibitory activity against HIV-1 protease.
ASSAY_ENDPOINT: pIC50
# log scale: pIC50 equals minus log10 of the concentration in mol/L

input: Determine its reported pIC50: CC(C)(C)OC(=O)N[C@@H](Cc1ccccc1)[C@@H](O)C[C@@H](Cc1ccc(OCc2ccccc2)cc1)C(=O)NC1c2ccccc2C[C@H]1O (some centres undefined)
output: 9.74

input: Let me know recorded pIC50 for COCCN(CCOC)CCOc1ccc(C[C@H](C[C@H](O)[C@H](Cc2ccccc2)NC(=O)OC(C)(C)C)C(=O)NC2c3ccccc3C[C@H]2O)cc1 (some centres undefined) , thanks.
output: 9.05

input: Look up pIC50 of `CC(C)(C)OC(=O)N[C@@H](Cc1ccccc1)[C@@H](O)C[C@@H](Cc1ccccc1)C(=O)N[C@H]1c2ccccc2C[C@H]1O` and report it.
output: 9.46

input: Item CC(C)(C)OC(=O)N[C@@H](Cc1ccccc1)[C@@H](O)CC(Cc1ccc(OCC(=O)O)cc1)C(=O)NC1c2ccccc2C[C@H]1O (some centres undefined) : provide pIC50
output: 10.40

input: Fill in pIC50 for record CC(C)(C)OC(=O)N[C@@H](Cc1ccc(O)cc1)[C@@H](O)C[C@@H](Cc1ccc(O)cc1)C(=O)NC1c2ccccc2C[C@H]1O (some centres undefined)
output: 9.82

input: Give reported pIC50 value for CC(C)(C)OC(=O)N[C@@H](Cc1ccccc1)[C@@H](O)C[C@@H](Cc1ccc(OCC(=O)N2CCOCC2)cc1)C(=O)NC1c2ccccc2C[C@H]1O (some centres undefined)
output: 9.70

input: Identify pIC50 associated with the compound CC(C)(C)OC(=O)N[C@@H](Cc1ccc(O)cc1)[C@@H](O)C[C@@H](Cc1ccccc1)C(=O)NC1c2ccccc2C[C@H]1O (some centres undefined)
output: 9.46

input: Recall and state the measured pIC50 for CC(C)(C)OC(=O)N[C@@H](Cc1ccc(OCCN2CCOCC2)cc1)[C@@H](O)C[C@@H](Cc1ccccc1)C(=O)NC1c2ccccc2C[C@H]1O (some centres undefined) .
output: 9.26

input: Answer with the recorded pIC50 of CC(C)(C)OC(=O)N[C@@H](Cc1ccccc1)[C@@H](O)C[C@@H](Cc1ccc(OCCN2CCS(=O)(=O)CC2)cc1)C(=O)NC1c2ccccc2C[C@H]1O (some centres undefined) only.
output: 10.10

input: State, in one line, measured pIC50 of CC(C)(C)OC(=O)N[C@@H](Cc1ccccc1)[C@@H](O)C[C@@H](Cc1ccc(OCCCN2CCOCC2)cc1)C(=O)NC1c2ccccc2C[C@H]1O (some centres undefined)
output: 8.70

input: # return recorded pIC50 for entry CC(C)(C)OC(=O)N[C@@H](Cc1ccccc1)[C@@H](O)C[C@@H](Cc1ccc(OCCO)cc1)C(=O)NC1c2ccccc2C[C@H]1O (some centres undefined)
output: 10.05

input: Fill in pIC50 for record CC(C)(C)OC(=O)N[C@@H](Cc1ccccc1)[C@@H](O)C[C@@H](Cc1ccc(OCC[N+]2([O-])CCOCC2)cc1)C(=O)NC1c2ccccc2C[C@H]1O (some centres undefined)
output: 9.70

input: Identify measured pIC50 associated with CC(C)(C)OC(=O)N[C@@H](Cc1ccccc1)[C@@H](O)C[C@@H](Cc1ccc(OCCN2CCSCC2)cc1)C(=O)NC1c2ccccc2C[C@H]1O (some centres undefined)
output: 9.33

input: Input CC(C)(C)OC(=O)N[C@@H](Cc1ccccc1)[C@@H](O)C[C@@H](Cc1ccc(OCCN2CCCCC2)cc1)C(=O)NC1c2ccccc2C[C@H]1O (some centres undefined) , output reported pIC50.
output: 8.80
